endpoint.name: pKd
Quick note: pKd means taking -log10 of the concentration in moles per liter.

Look up pKd with HIV-1 CA monomer (Human immunodeficiency virus type 1 group M subtype B) for this molecule: COc1ccc(N(C)C(=O)[C@H](Cc2cc(F)cc(F)c2)NC(=O)c2cccc(-c3cn(Cc4ccc([N+](=O)[O-])cc4)nn3)c2)cc1 [II-10c]
5.66

* * *

# System: HIV-1 NL4-3 virus
# test: Anti-HIV-1 activity, multicycle assay with HIV-1 NL4-3 in TZM-bl cells
# Format: cell-based
# conditions: Human immunodeficiency virus 1, NL43, TZM-bl
Field: EC50. Provide a value for each of the molecules that follow.
Give the value, in units of µM, as a plain number.

Can you share its EC50? I mean this molecule: COc1ccc(N(C)C(=O)[C@H](Cc2cc(F)cc(F)c2)NC(=O)c2cn(Cc3ccccc3[N+](=O)[O-])nn2)cc1
3.27

Can you share its EC50? I mean this molecule: COc1ccc(N(C)C(=O)[C@H](Cc2cc(F)cc(F)c2)NC(=O)c2cn(Cc3cccc([N+](=O)[O-])c3)nn2)cc1
10

Can you share its EC50? I mean this molecule: COc1ccc(N(C)C(=O)[C@H](Cc2cc(F)cc(F)c2)NC(=O)c2cn(Cc3cccc(C#N)c3)nn2)cc1
3.58

Can you share its EC50? I mean this molecule: COc1ccc(N(C)C(=O)[C@H](Cc2cc(F)cc(F)c2)NC(=O)c2cn(Cc3ccccc3C#N)nn2)cc1
9.61

Can you share its EC50? I mean this molecule: COc1ccc(N(C)C(=O)[C@H](Cc2cc(F)cc(F)c2)NC(=O)c2cn(Cc3ccccc3Cl)nn2)cc1
9.63
